System: C2A
measurement_protocol: qHTS profiling for inhibitors of Plasmodium falciparum proliferation (AID 504749); also: nearly all actives have a fitted effect of over 60% in size
measurement_setup: P. falciparum in erythrocytes, SYBR Green DNA, 72 h; series mostly up to 28.7 µM
Procedure: NIH National Institute of Allergy and Infectious Diseases [NIAID] NIH Chemical Genomics Center [NCGC] […] Because mature erythrocytes lack DNA, only Plasmodium-derived DNA is detected. NCGC Assay Protocol Summary: The SYBR Green viability assay was adapted from a method described previously (Plouffe et al., 2008). […] The following morning, fluorescence intensity at 485(14) nm excitation and 535(25) nm emission wavelengths was measured on an EnVision (Perkin Elmer) plate reader. […]
Records with an inconclusive call do not appear. Activity calls are given as the source filed them. Calls follow the shape of the dose curve; as a rule, active = well fitted inhibition curve with a large enough effect; inconclusive = small, poorly fitted or top-dose-only effect; inactive = flat fitted curve, though single readings scatter.
Labels: active, inactive

molecule | discrete_label
NC(CSSCC(N)C(=O)O)C(=O)O (stereo not given) | inactive
CN(C)CC/C=C1\c2ccccc2COc2ccc(CC(=O)O)cc21 | inactive
C[n+]1c2cc(N)ccc2cc2ccc(N)cc21 | active
CCC(C)C(N)C(=O)O (stereo not given) | inactive
Cc1c(C)c2c(c(C)c1O)CCC(C)(CCCC(C)CCCC(C)CCCC(C)C)O2 (stereo not given) | inactive
OCCOC[C@H]1O[C@H](OCCO)[C@H](OCCO)[C@@H](OCCO)[C@@H]1OCCO (tested in a mixture with another compound) | inactive
O=C(O)Cc1sc(-c2ccc(Cl)cc2)nc1-c1ccccc1 | inactive
C[C@]12CC[C@@H]3c4ccc(O)cc4CC[C@H]3[C@@H]1CCC2OC(=O)CCC1CCCC1 (stereo not given in full) | inactive
NCCCCC(N)C(=O)O (stereo not given) | inactive
C#C[C@]1(O)CC[C@H]2[C@H]3[C@H](CC[C@@]21C)C1=C(CC(=O)CC1)C[C@@H]3C | inactive
CC1CCC(C(C)C)C(O)C1 (stereo not given) | inactive
C[C@@H]1CC2C3CCC4=CC(=O)C=C[C@]4(C)[C@@]3(F)[C@@H](O)C[C@]2(C)[C@@]1(O)C(=O)COC(=O)c1cccc(S(=O)(=O)O)c1 (stereo not given in full) | inactive
CC1=C(c2ccc(NN=C(C#N)C#N)cc2)NNC(=O)C1 | inactive
CO[C@H]1/C=C/O[C@@]2(C)Oc3c(C)c(O)c4c(O)c(c5c(c4c3C2=O)NC2(CCN(CC(C)C)CC2)N=5)=NC(=O)/C(C)=C\C=C\[C@H](C)[C@H](O)[C@@H](C)[C@@H](O)[C@@H](C)[C@H](OC(C)=O)[C@@H]1C | active
CC(=O)N1CC(O)CC1C(=O)O (stereo not given) | inactive
C[C@H]1OC(OC2C(O)[C@@H](O)C(OC3C(O)[C@@H](O)C(O)O[C@@H]3CO)O[C@@H]2CO)[C@H](O)C(O)C1N[C@H]1C=C(CO)[C@@H](O)[C@H](O)C1O (stereo not given in full) | inactive
Cc1ccc(Nc2ncccc2C(=O)O)cc1C | inactive
COc1ccc2cc1Oc1cc3c(cc1OC)CC[N+](C)(C)C3Cc1ccc(cc1)Oc1c(OC)c(OC)cc3c1C(C2)[N+](C)(C)CC3 (stereo not given) | inactive
Nc1nc(Cl)nc2c1ncn2[C@@H]1O[C@H](CO)[C@H](O)C1F (stereo not given in full) | inactive
O=[N+]([O-])O[C@H]1CO[C@H]2[C@@H]1OC[C@H]2O | inactive
